experiment_notes: Pharmacokinetic experiment on intranasally administered native motilin and a motilin derivative compound in monkeys (RIA)
Type: in vivo, cynomolgus monkey
test_parameters: male, cynomolgus monkey, plasma, inhaled or intranasal, intranasal administration, mean for N = 1-2
No end group written: not given here.
quantity: Cmax (ng/mL)
Answers are plain numbers, in ng/mL.

Q: Recorded Cmax for FVPIFTYGELQRLQEKERNKPQ [Compound 2] , please?
A: 23.5

###

experiment_notes: Pharmacokinetic experiment on pulmonarily administered native motilin and motilin derivative compounds in rats (RIA)
Format: in vivo, rat
test_parameters: male, SD, plasma, inhaled or intranasal, 25 ug/animal, pulmonary administration, 25 μg/rat
No end group written: not given here.
What Cmax was measured for each of the following?
Give bare numbers, in ng/mL.

These recorded examples may help you get a feel for the data.
>>> measured_value("FVPIFTYGELQRLQEKERNKGQ [Comparative compound 1, reference compound]")
4.53
>>> measured_value("FVPIFTYGELQRLQEKERPKPQ [Compound 9]")
8.99
>>> measured_value("FVPIFTYGDLQRLQEKERPKPQ [Compound 3]")
24.6

Moving on to another sequence below.
Q: Recorded Cmax for FVPIFTYGELQRLQEKERNKPQ [Compound 2] , please?
A: 26.6

###

experiment_notes: Pharmacokinetic experiment on pulmonarily administered native motilin and motilin derivative compounds in rats (RIA)
Type: in vivo, rat
test_parameters: male, SD, plasma, inhaled or intranasal, 25 ug/animal, pulmonary administration, 25 μg/rat, trapezoidal method
No end group written: not given here.
What AUC was measured for each of the following?

These recorded examples may help you get a feel for the data.
>>> measured_value("FVPIFTYGDLQRLQEKERPKPQ [Compound 3]")
"4.7 ng·h/mL"
>>> measured_value("FVPIFTYGELQRLQEKERPKPQ [Compound 9]")
"1.93 ng·h/mL"
>>> measured_value("FVPIFTYGELQRLQEKERNKPQ [Compound 2]")
"5.84 ng·h/mL"

Q: Recorded AUC for FVPIFTYGELQRLQEKERNKGQ [Comparative compound 1, reference compound] , please?
A: 1.05 ng·h/mL

###

experiment_notes: Pharmacokinetic experiment on intranasally administered native motilin and a motilin derivative compound in monkeys (RIA)
Type: in vivo, cynomolgus monkey
test_parameters: male, cynomolgus monkey, plasma, inhaled or intranasal, intranasal administration, mean for N = 1-2
No end group written: not given here.
quantity: AUC (ng·h/mL)
Numbers only, in ng·h/mL.

Q: Recorded AUC for FVPIFTYGELQRLQEKERNKPQ [Compound 2] , please?
A: 6.02

###

experiment_notes: in vivo
test_parameters: male, cynomolgus monkey, iv, 10 ug/kg
No end group written: not given here.
quantity: C0 (µg/mL)
Give bare numbers, in µg/mL.

Q: Recorded C0 for FVPIFTYGELQRLQEKERNKPQ [Compound 2] , please?
A: 0.273

###

experiment_notes: in vivo
test_parameters: male, cynomolgus monkey, iv, 10 ug/kg
No end group written: not given here.
quantity: AUC (ng·h/mL)
One number for each entry, in ng·h/mL.

Q: Recorded AUC for FVPIFTYGELQRLQEKERNKPQ [Compound 2] , please?
A: 15.4
